experiment: Phase I study CXR1002-001: plasma pharmacokinetics (LC-MS/MS); type: in vivo, human; conditions: human, plasma, oral, 750 mg, Patient 026, 750 mg, person, plasma, 2 hr; read-out: Concentration
RECORDED ENDPOINT: concentration at 2 h (µM)
Quick reminder: number only, in µM, skip the unit.

Item O=C(O)C(F)(F)C(F)(F)C(F)(F)C(F)(F)C(F)(F)C(F)(F)C(F)(F)F : provide concentration at 2 h 95.8

====

experiment: Phase I study CXR1002-001: plasma pharmacokinetics (LC-MS/MS); assay type: in vivo, human; conditions: human, plasma, oral, 750 mg, Patient 026, 750 mg, person, plasma, 3 hr; read-out: Concentration
RECORDED ENDPOINT: concentration at 3 h (µM)
Quick reminder: number only, in µM, skip the unit.

Item O=C(O)C(F)(F)C(F)(F)C(F)(F)C(F)(F)C(F)(F)C(F)(F)C(F)(F)F : provide concentration at 3 h 125
